Task for the reader: assign each of the following compounds its reported pKa.
- testContext: acidic group
Write the value as a bare number.

Using known records, supply pKa for Cc1ccc2ccccc2c1C(=O)O
3.11

Using known records, supply pKa for N#CCCN(CCC#N)c1nnn[nH]1
4.85

Using known records, supply pKa for CCCCOc1cccc(C(=O)O)c1
4.25

Using known records, supply pKa for COc1cc(CO)ccc1O
9.79

Using known records, supply pKa for O=c1oc2cc(O)ccc2cc1-c1nc2cc(Cl)ccc2o1
6.8

Using known records, supply pKa for O=S(=O)([O-])c1cc(O)cc2[nH]ncc12
8.85

Using known records, supply pKa for O=C(O)/C=C\C(=O)NOCc1ccccc1
3.8

Using known records, supply pKa for N#CCC#N
11.2

Using known records, supply pKa for Cn1nc(/N=N/O)nc1N
5.36

Using known records, supply pKa for C[n+]1cc(O)ccn1
1.74

Using known records, supply pKa for OCCCl
14.4

Using known records, supply pKa for O=C(O)[C@H]1CC[C@@H](O)CC1
4.84

Using known records, supply pKa for O=C1C=CC(=Nc2ccc(O)cc2)C=C1
8.1

Using known records, supply pKa for O=C([O-])c1ccc(NS(=O)(=O)c2ccccc2)cc1
7.75

Using known records, supply pKa for CCOCC(=O)O
3.61

Using known records, supply pKa for Cc1cc(O)n(-c2nc(O)c(C)c(C)[nH+]2)n1
5.5

Using known records, supply pKa for Oc1ccc(-c2nnn[nH]2)cc1
4.28

Using known records, supply pKa for [NH3+]CCC[SeH]
6.27

Using known records, supply pKa for O/N=C/c1ccnc2ccccc12
10.4

Using known records, supply pKa for CCNc1ncnc2[nH]ncc12
10.9

Using known records, supply pKa for Cc1nsc(S)n1
5.18

Using known records, supply pKa for C[C@H]([NH3+])C(=O)O
2.42

Using known records, supply pKa for N#C/C(=C(\[O-])O)c1ccccc1
8.7

Using known records, supply pKa for CC(C)(/C=C/C(=O)O)c1cc([N+](=O)[O-])ccc1O
4.26

Using known records, supply pKa for CC[C@@H](C(=O)O)[C@@]1(O)C[C@H]2CC[C@@H]1C2
4.26

Using known records, supply pKa for CCCCNc1ncnc2[nH]ncc12
11.2

Using known records, supply pKa for CC(=O)c1ccccc1C(=O)O
4.15

Using known records, supply pKa for Cc1cc(O)cc(C)c1C#N
8.21

Using known records, supply pKa for CCCCCC(=O)CC(C)=O
9.2

Using known records, supply pKa for CCc1c(-c2ccccc2)n[nH]c1O
7.8

Using known records, supply pKa for Cc1cc(C(C)(C)C)c(O)c(C(C)(C)C)c1
12.6

Using known records, supply pKa for O=C(O)CCS
4.38

Using known records, supply pKa for CC(=O)N(C)O
8.73

Using known records, supply pKa for [NH3+][C@@H](Cc1c[nH]c[nH+]1)C(=O)N[C@@H](Cc1c[nH]c[nH+]1)C(=O)O
2.25

Using known records, supply pKa for CC(=O)Nc1nnc(-c2ccccc2)s1
8.9

Using known records, supply pKa for Oc1cncc2ccccc12
8.68

Using known records, supply pKa for COc1cccc([N+](=O)[O-])c1O
6.74

Using known records, supply pKa for Nc1c2[nH]cnc2nc[n+]1[O-]
9

Using known records, supply pKa for Cc1cc(=O)oc2cccc(O)c12
8.26

Using known records, supply pKa for CCO/C(C)=N/O
11.4

Using known records, supply pKa for OCc1nc2ncncc2[nH]1
8.79

Using known records, supply pKa for O=C(O)CCc1ccc([N+](=O)[O-])cc1
4.54

Using known records, supply pKa for Oc1ccc(O)c2ncccc12
9.3

Using known records, supply pKa for CCCCNc1cc[nH+]c(S)n1
3.2

Using known records, supply pKa for O=C1OCC(O)=C1O
4.4

Using known records, supply pKa for NS(=O)(=O)c1ccc([N+](=O)[O-])cc1
8.63

Using known records, supply pKa for C=C(C)/C=C(/C(=O)O)c1ccc([N+](=O)[O-])cc1
4.4

Using known records, supply pKa for O=S(Cc1ccccc1)c1ncc[nH]1 (stereo not drawn)
9.8

Using known records, supply pKa for [O-]c1ccc(/C=N/O)cc1
12

Using known records, supply pKa for O=C(O)CCc1c[nH]c[nH+]1
4

Using known records, supply pKa for OC(O)c1ccccc1
12.4

Using known records, supply pKa for Cc1cc(C(=O)O)ccc1Br
4.03

Using known records, supply pKa for N#Cc1ccc(O)cc1
7.89

Using known records, supply pKa for CCC(CC(C)C)OO (stereo not drawn)
12.8

Using known records, supply pKa for COc1cccc(OC)c1-c1nc2cnccc2[nH]1
10.9

Using known records, supply pKa for CC=C=CC(=O)CC(Cc1ccccc1)C(=O)[O-] (stereo not drawn)
13.9

Using known records, supply pKa for O=C([O-])C(CO)[NH2+]Cc1cc(Cl)ccc1O (stereo not drawn)
7.95

Using known records, supply pKa for O=[N+]([O-])c1ccc(NC=S)cc1
10.1

Using known records, supply pKa for Oc1ccc2ccnnc2c1
7.56

Using known records, supply pKa for C=CC[NH+](C)CCCNC(=O)/C=N/O
8.48

Using known records, supply pKa for CC1(C)CC(O)[N+](C)(C)C1 (stereo not drawn)
8.7

Using known records, supply pKa for Nc1nc2nc[nH]c2c(N)[n+]1[O-]
9.7

Using known records, supply pKa for Nc1ccc(S(=O)(=O)Nc2ccc(S(N)(=O)=O)cc2)cc1
7.85
